System: NT2 precursor cells
method: cells
Format: cell-based, human
condition-context: Homo sapiens; 44 h exposure; read-out: IC50 migration (spec. EP)
Recorded measurements of pIC50, one per entry
For clarity, pIC50 is expressed as the negative log10 of concentration in mol/L.

Exercise: Quick check: pIC50 of `N#Cc1nn(-c2c(Cl)cc(C(F)(F)F)cc2Cl)c(N)c1S(=O)(=O)C(F)(F)F` ?
Key: 4.85

Kindly consider the entry below.
Exercise: Quick check: pIC50 of N#Cc1nn(-c2c(Cl)cc(C(F)(F)F)cc2Cl)c(N)c1[S+]([O-])C(F)(F)F (centres unmarked) ?
Key: 4.60

###

Tested on: NT2 precursor cells
method: cells
Type: cell-based, human
condition-context: Homo sapiens; co-applied with 122 nM rotenone; read-out: EC50 alleviation of rotenone-inhibited migration
measured-metric: EC50 (µM)
Only the number, expressed in µM, is required.

Exercise: Quick check: EC50 of `C[C@@H](N)[C@H]1CC[C@H](C(=O)Nc2ccncc2)CC1` ?
Key: 8.3

###

condition-context: human
measured-metric: IC50 at 24 h

Exercise: Quick check: IC50 at 24 h of C=C(C)[C@H]1Cc2c(ccc3c2O[C@@H]2COc4cc(OC)c(OC)cc4[C@@H]2C3=O)O1 [Rotenone] ?
Key: > 10 µM

###

method: Resazurin reduction viability assay in the cell migration assay
Assay type: cell-based
condition-context: human; highest tested rotenone concentration (333 nM); read-out: General viability (% of control)
measured-metric: viability at 44 h, 0.333 µM

Exercise: Quick check: viability at 44 h, 0.333 µM of `C=C(C)[C@H]1Cc2c(ccc3c2O[C@@H]2COc4cc(OC)c(OC)cc4[C@@H]2C3=O)O1` ?
Key: > 70%

###

method: Resazurin reduction viability assay in the neuronal differentiation assay
Assay type: cell-based, human
condition-context: human; highest tested rotenone concentration (100 nM); read-out: General viability (% of control)
measured-metric: viability at 5 days, 0.1 µM (%)
Only the number, expressed in %, is required.

Exercise: Quick check: viability at 5 days, 0.1 µM of `C=C(C)[C@H]1Cc2c(ccc3c2O[C@@H]2COc4cc(OC)c(OC)cc4[C@@H]2C3=O)O1` ?
Key: 72
